// reported self-cleavage for each item listed
B1: CPEB3 Ribozyme (parent)
chain: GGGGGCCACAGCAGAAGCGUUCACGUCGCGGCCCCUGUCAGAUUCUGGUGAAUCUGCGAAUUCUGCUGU

Variants of: B1
Assay: self-cleavage, relative activity (ratio to wild type); higher = more cleavage; co-transcriptional
I only need the number, thanks.

Examples with their reported self-cleavage follow.
{"biosequence": "GGGGGCCACAGCAGAAGCGUUCACGUCGCGGCCCCUGUCAGAGUCUGGUGAAGCUGCGAAUUCUGCUGU [U43G U53G]", "self-cleavage": 0.854}
{"biosequence": "GGCGGCCACAGCAGAAGCGUUCACGUCGCGGCCCCUGUCAGCUUCUGGUGAAUCUGCGAAUUCUGCUGU [G3C A42C]", "self-cleavage": 0.0214}
{"biosequence": "GGCGGCCACAGCAGAAGCGUUCCCGUCGCGGCCCCUGUCAGAUUCUGGUGAAUCUGCGAAUUCUGCUGU [G3C A23C]", "self-cleavage": 0.0635}
{"biosequence": "GGGGGCCACAGCAGAAGCGUUCACGUCGCGGCCCCUGUCCGAUUCUGGUGAAUCUCCGAAUUCUGCUGU [A40C G56C]", "self-cleavage": 0.341}
{"biosequence": "GGGGGCCACAGCAGAAGCGGUCACGUCGCGGCCCCUGUCAGAUUCUGGUGAAUCUUCGAAUUCUGCUGU [U20G G56U]", "self-cleavage": 0.199}
{"biosequence": "GGGGGCCACAGCAGAAGCGAUCACGUCGCGGCCCCUGUCAGAUUCUGGUGAAUCUGCGAAUUAUGCUGU [U20A C63A]", "self-cleavage": 0.129}

Entry GGGGGCCACAGCAGAAGCGUUCAAGUCGCGGCCACUGUCAGAUUCUGGUGAAUCUGCGAAUUCUGCUGU [C24A C34A] has what self-cleavage?
0.262
